- EXPERIMENTAL_TARGET: Nuclear receptor coactivator 1 (Homo sapiens) (UniProt Q15788)
- Sequence (Q15788 whole entry, looked up): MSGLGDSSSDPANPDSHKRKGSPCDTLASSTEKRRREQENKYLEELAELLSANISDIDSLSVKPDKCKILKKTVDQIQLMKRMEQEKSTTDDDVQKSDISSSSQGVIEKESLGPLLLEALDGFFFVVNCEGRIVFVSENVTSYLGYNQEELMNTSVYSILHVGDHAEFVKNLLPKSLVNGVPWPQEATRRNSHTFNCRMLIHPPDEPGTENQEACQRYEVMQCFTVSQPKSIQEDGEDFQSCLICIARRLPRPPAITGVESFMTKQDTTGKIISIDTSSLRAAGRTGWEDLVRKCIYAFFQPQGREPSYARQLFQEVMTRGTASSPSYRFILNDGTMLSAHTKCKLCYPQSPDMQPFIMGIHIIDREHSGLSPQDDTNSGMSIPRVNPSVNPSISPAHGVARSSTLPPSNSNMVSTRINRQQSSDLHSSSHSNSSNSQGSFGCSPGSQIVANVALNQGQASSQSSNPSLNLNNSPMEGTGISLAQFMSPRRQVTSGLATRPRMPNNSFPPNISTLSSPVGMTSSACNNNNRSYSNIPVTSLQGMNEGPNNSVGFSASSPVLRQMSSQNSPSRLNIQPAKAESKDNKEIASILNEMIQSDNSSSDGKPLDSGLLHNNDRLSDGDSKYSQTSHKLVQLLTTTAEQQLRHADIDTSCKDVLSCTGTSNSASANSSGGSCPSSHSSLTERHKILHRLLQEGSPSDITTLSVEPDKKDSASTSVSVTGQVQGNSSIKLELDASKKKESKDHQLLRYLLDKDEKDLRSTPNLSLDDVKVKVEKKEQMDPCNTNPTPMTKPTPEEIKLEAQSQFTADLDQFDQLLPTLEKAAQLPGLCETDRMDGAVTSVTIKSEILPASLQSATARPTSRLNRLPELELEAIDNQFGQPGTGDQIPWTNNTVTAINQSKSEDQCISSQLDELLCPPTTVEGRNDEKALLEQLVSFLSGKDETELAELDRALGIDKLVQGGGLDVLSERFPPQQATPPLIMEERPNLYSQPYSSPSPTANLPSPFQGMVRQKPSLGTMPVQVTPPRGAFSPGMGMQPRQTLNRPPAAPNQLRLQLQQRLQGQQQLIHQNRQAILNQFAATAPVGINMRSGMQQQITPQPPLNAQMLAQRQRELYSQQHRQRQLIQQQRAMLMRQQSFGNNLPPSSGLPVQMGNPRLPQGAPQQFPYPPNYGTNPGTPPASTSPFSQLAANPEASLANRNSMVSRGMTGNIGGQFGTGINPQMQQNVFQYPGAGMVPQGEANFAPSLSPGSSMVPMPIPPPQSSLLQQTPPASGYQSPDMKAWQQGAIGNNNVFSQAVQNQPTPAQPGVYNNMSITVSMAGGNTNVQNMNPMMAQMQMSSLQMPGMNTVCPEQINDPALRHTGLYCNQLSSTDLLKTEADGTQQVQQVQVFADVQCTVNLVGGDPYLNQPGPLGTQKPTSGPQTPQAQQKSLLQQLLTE
- PROTOCOL_SUMMARY: SRC1 coactivator transcriptional activity inhibitors, confirmation, cell-based, luminescence, quadruplicate (AID 588820);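 further: 0% = DMSO wells and 100% = gossypol 36 µM treated wells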
- STUDY_CONDITIONS: HEK293 GAL4-SRC1 luciferase reporter, at 3.6 µM, hits give high values
ASSAY_READOUT: inhibition (%)
Answers are plain numbers, in %.

COc1cc(/C=N/NC(=Nc2ccc(C)cc2)c2nc3ccccc3s2)ccc1O : 11.4
Cc1cccc(N2CCN(C(=O)CSc3nc4ccccc4nc3N3CC(C)OC(C)C3)CC2)c1C (configuration not stated) : -26.1
Cn1nc(-c2ccccn2)nc2c(=O)n(C)c(=O)nc1-2 : 3.11
CC(=O)Nc1ccc(S(=O)(=O)c2ccnc3cc(Cl)ccc23)cc1 : 47

Hi team, please reply with inhibition for each item in this list.
1. COc1cccc(/C=N/NC(=O)c2cc(-c3cccn3C)n[nH]2)c1O
2. Cc1ccccc1N(C(=O)c1csnn1)C(C(=O)NC1CCCCC1)c1ccncc1 (configuration not stated)
3. Cc1ccccc1Cn1c(C)nc2ccccc21
4. COc1ccc(-c2cc(C(=O)NCCCN3CCOCC3)c3ccccc3n2)cc1OC
5. CN(Cc1ccccc1)C1=CC(=[N+]2CCCC2)CC(C)(C)C1

1: 37.6; 2: -16; 3: -27.4; 4: -12.4; 5: 7.51

Hi team, please reply with inhibition for each item in this list.
1. CCN(CC)C1=CC(=[N+]2CCCC2)CC(C)(C)C1
2. Cc1ccc2nc(-c3ccccc3)cn2c1
3. CCOc1ccccc1O[C@H](c1ccccc1)[C@H]1CNCCO1
4. Cn1c(/C=C/c2cccc([N+](=O)[O-])c2)c([N+](=O)[O-])c(=O)n(C)c1=O
5. Cc1sc2ncnc(N3CCC(C(=O)Nc4cc(S(C)(=O)=O)ccc4Cl)CC3)c2c1C
6. COc1cccc(/C=N/NC(=O)c2ccc(-c3ccccc3)cc2)c1O

-5.15
-44.9
-8.72
32.5
14.9
37.3

Hi team, please reply with inhibition for each item in this list.
1. CCC(C)C(=O)Nc1nc(C)c(-c2csc(Nc3cc(Cl)ccc3OC)n2)s1 (configuration not stated)
2. CCCCCCCCCCCCCCCC[n+]1cccc2ccccc21
3. CN(CC1CCCO1)S(=O)(=O)c1ccc(C(=O)Nc2nc3cc4c(cc3s2)OCO4)cc1 (configuration not stated)
4. CC1CCC(C(C)C)C(OC(=O)Cn2c(-c3ccc(F)cc3)[n+](C)c3ccccc32)C1 (configuration not stated)
5. O=C1C(Nc2ccc(O)cc2)=C/C(=N/S(=O)(=O)c2cccs2)c2ccccc21
6. O=[N+]([O-])c1nn(-c2ccc3c(c2)OCCO3)n(O)c1=Nc1ccccc1

[-14.5, 39.9, 0.14, 25.4, 29.5, 70.5]

Hi team, please reply with inhibition for each item in this list.
1. CCCCCC[n+]1ccccc1/C=C/c1ccc(N(C)C)cc1
2. CCCCCCN1C2=NCCCN2c2ccccc21
3. CC1=NN(c2nc3ccccc3[nH]2)C(=O)C1Cc1ccccc1 (configuration not stated)
4. Cc1nn(-c2ccccc2)c(Cl)c1C(=O)N1CCN(c2ncnc3c2cnn3-c2ccccc2)CC1
5. COc1ccc(C[C@H](N)C(=O)N[C@H]2[C@@H](O)[C@H](n3cnc4c(N(C)C)ncnc43)O[C@@H]2CO)cc1
6. CC(C)(CO)CNc1ccn2nccc2n1
7. CCn1cc(C(=O)NCC(OC)OC)c(=O)c2cc(S(=O)(=O)N(C)C3CCCCC3)ccc21
8. N#Cc1cc2c(nc1SCC(=O)N1CCOCC1)CCCCC2

1. 64
2. 1.1
3. 48.1
4. 4.61
5. 89.3
6. 67.4
7. 11.4
8. -34.5

Hi team, please reply with inhibition for each item in this list.
1. CC(C)Cn1c(N)c(C(=O)CSc2ccc3c(c2)OCCO3)c(=O)n(C)c1=O
2. Cc1ccc2cc3cc(C(=O)NCc4ccco4)oc3nc2c1
3. CC1(Cc2cccc(F)c2)C(=O)Nc2ccc(-c3cccnc3)cc21 (configuration not stated)

[46, -10, 65]

---

- PROTOCOL_SUMMARY: VP16 transactivation reporter inhibitors, counter-screen for LRH-1 inverse agonist project, cell-based, luminescence, high throughput (AID 651615)
- STUDY_CONDITIONS: Gal4-VP16 luciferase reporter cells, at 3.6 µM, hits give high values
ASSAY_READOUT: inhibition (%)
Answers are plain numbers, in %.

Solved entries (count: 8):
c1cnn(-c2nc(N3CCOCC3)nc(N3CCOCC3)n2)c1 : 20.2
Cc1ccc(S(=O)(=O)Nc2ccc3ncccc3c2)cc1 : 18.1
COc1cc(C)c(C(=O)Oc2cc(C)c(C(=O)O)c(O)c2C)c(O)c1C : -10.6
COC(=O)CNC(=O)c1nn(-c2cccc(OC)c2)c(=O)c2ccccc12 : -0.96
Cc1cc(Br)ccc1NC(=O)CN1C(=O)CCC1=O : 4.01
Cc1cccc(-c2cc(NCCc3cccnc3)n3nccc3n2)c1 : -2.05
C=CCNc1sc(C(=O)c2ccccc2)c(N)c1C#N : 6.37
COC(=O)c1c(NC(=O)c2ccc([N+](=O)[O-])o2)sc2c1CCN(C(C)C)C2 : 0.53

Hi team, please reply with inhibition for each item in this list.
1. O=C(N/N=C/c1ccc([N+](=O)[O-])s1)c1cccnc1
2. CC(=O)Nc1ccc(NC(=O)CSc2nc3nc(-c4cccs4)cc(C(F)(F)F)c3c(=O)[nH]2)cc1
3. CC1CCC(C(C)C)C(OC(=O)Cn2c(-c3ccccc3)[n+](C)c3ccccc32)C1 (stereo not given)
4. CCN1/C(=C/c2ccc3cc(C)ccc3[n+]2CC)Sc2cc(C)c(C)cc21
5. CCOc1cc(/C=C2\CCC/C(=C\c3cc(Cl)c(O)c(OCC)c3)C2=O)cc(Cl)c1O
6. Nc1nc(N)c2c(ccc3c2ccn3Cc2cccc([N+](=O)[O-])c2)n1
7. O=C(NC1CCC(CC2CCC(NC(=O)C(Cl)Cl)CC2)CC1)C(Cl)Cl (stereo not given)

7.08
-4.54
94.5
75.5
46.4
43.3
-2.2

---

- EXPERIMENTAL_TARGET: Nuclear receptor coactivator 3 (Homo sapiens)
- PROTOCOL_SUMMARY: SRC3 coactivator transcriptional activity inhibitors, confirmation, cell-based, luminescence, quadruplicate (AID 588792);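 further: 0% = DMSO treated cells and 100% = gossypol at 36 µM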
- STUDY_CONDITIONS: HEK293 GAL4-SRC3 luciferase reporter, at 3.6 µM, hits give high values
Classes (inhibition): bin A = under 30%, bin B = from 30% up to 50%, bin C = 50% and over

Please review the following examples before continuing.
COc1ccc(-c2cn[nH]c2-c2ccc(OC)cc2)cc1 : bin C
O=C(O)c1ccc(Cl)c(S(=O)(=O)NCc2cccnc2)c1 : bin A
O=[N+]([O-])c1ccc(N=Nc2c(Cl)cc(O)cc2Cl)cc1 : bin A
Cc1ccc2c(c1C)-c1c(ccc(C)c1C)C(=O)C2=O : bin C

Band of COc1ccc(-n2c(C)cc(C(=O)COc3ccc(C)nc3[N+](=O)[O-])c2C)cc1 ?
bin A

How about Cc1ccc(C(=O)C[n+]2cc(-c3ccc(C)cc3)n3c2CCCCC3)cc1 ?
bin A

How about O=C(CCCN1C(=O)/C(=C/c2ccccc2Cl)SC1=S)NNC(=O)c1ccc(Cl)cc1Cl ?
bin C

How about CCOC(=O)c1cccc(NS(=O)(=O)c2ccc(NC(C)=O)cc2)c1 ?
bin B

How about CCN1/C(=C/C=C/c2oc3ccc(-c4ccccc4)cc3[n+]2CC)Oc2ccc(-c3ccccc3)cc21 ?
bin C

---

Give measured inhibition for each item. Keep answers brief.
- EXPERIMENTAL_TARGET: Steroidogenic factor 1 (Homo sapiens) (UniProt Q13285)
- Sequence (Q13285 whole entry, looked up): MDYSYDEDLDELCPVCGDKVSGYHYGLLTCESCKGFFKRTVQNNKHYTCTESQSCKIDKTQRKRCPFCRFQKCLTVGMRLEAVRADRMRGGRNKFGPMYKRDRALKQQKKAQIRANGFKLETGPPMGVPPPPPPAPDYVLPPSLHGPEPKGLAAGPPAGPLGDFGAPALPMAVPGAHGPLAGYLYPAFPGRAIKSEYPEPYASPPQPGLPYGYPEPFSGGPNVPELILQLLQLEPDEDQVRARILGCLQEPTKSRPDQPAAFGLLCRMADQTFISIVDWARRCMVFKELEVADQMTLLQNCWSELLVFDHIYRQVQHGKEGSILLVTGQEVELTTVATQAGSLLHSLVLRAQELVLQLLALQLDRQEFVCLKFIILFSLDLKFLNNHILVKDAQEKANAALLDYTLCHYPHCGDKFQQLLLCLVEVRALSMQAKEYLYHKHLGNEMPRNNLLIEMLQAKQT
- PROTOCOL_SUMMARY: SF1 (NR5A1) inverse agonists, counter-screen for LRH-1 inverse agonist project, cell-based, luminescence, high throughput (AID 651614);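 further: cells cotransfected with StAR promoter reporter and SF1 expression vector; 0% = vehicle on cells with receptor and 100% = vehicle on cells lacking receptor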
- STUDY_CONDITIONS: cell-based SF1 luciferase reporter, at 3.6 µM, hits give high values
Give bare numbers, in %.

Solved entries (count: 2):
CN1CCN(c2ccccc2NC(=O)c2ccc(-c3cccc([N+](=O)[O-])c3)o2)CC1 : 49.6
CCN(CC)c1ccc(NC(=O)CSc2nnc(N)s2)cc1C : 51.4

Any idea what inhibition was measured for Cc1ccc(/C=C/C(=O)c2c(C)cc(C)[nH]c2=O)cc1 ?
50.4

---

- EXPERIMENTAL_TARGET: Nuclear receptor coactivator 2 (Homo sapiens) (UniProt Q15596)
- Sequence (Q15596 whole entry, looked up): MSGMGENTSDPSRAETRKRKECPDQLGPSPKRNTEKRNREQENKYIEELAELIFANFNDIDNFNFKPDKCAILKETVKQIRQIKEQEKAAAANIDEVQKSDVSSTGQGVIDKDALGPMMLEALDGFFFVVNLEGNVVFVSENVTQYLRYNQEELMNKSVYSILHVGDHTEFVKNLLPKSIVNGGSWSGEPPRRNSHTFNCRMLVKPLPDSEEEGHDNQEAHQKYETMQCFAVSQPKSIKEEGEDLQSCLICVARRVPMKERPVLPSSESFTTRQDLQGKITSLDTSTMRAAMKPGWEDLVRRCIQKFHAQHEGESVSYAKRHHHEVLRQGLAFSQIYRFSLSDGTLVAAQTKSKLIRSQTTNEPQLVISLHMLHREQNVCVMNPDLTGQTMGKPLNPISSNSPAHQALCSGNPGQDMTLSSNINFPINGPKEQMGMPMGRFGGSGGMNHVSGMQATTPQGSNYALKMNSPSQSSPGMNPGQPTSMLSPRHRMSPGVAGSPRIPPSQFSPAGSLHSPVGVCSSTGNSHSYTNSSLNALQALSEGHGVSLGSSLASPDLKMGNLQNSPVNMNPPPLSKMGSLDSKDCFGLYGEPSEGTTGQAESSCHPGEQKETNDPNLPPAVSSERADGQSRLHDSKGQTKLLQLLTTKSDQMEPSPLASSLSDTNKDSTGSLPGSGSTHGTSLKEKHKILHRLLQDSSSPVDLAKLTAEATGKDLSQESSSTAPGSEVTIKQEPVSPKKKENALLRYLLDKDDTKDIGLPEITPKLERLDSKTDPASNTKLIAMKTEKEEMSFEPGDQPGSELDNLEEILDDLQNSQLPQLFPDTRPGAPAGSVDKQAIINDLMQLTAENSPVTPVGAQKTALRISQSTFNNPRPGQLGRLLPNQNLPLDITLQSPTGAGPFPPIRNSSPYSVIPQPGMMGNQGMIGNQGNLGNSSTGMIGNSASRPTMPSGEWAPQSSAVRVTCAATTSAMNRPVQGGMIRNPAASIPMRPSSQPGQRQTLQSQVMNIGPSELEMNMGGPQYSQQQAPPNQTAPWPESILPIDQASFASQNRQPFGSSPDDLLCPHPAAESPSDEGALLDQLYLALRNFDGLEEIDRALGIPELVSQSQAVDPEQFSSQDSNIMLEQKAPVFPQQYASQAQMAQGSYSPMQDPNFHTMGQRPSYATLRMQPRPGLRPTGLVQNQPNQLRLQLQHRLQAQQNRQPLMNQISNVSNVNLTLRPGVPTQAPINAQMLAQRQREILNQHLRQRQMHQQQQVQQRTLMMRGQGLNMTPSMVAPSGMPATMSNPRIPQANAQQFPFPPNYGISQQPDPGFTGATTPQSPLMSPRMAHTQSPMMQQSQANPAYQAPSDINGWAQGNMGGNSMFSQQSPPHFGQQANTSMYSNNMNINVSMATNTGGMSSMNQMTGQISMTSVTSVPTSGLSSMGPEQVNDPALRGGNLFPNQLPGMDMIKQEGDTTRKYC
- PROTOCOL_SUMMARY: SRC2 coactivator transcriptional activity inhibitors, confirmation, cell-based, luminescence, HEK293, triplicate (AID 652008);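 further: 0% = DMSO-treated cells and 100% = Gossypol at 36 µM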
- STUDY_CONDITIONS: HEK293 GAL4-SRC2 luciferase reporter, at 8.9 µM
Calls of active or inactive are those of the source.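 Rule for the calls: active = mean inhibition above 46.5%, the solvent-only control mean plus 3 SD; inactive = the rest.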
Outcome (select one): active, inactive

Which result was noted for this compound in the test: COc1cc(CNc2ccc3[nH]c(=O)[nH]c3c2)cc(Br)c1OCc1ccc(F)cc1
inactive

How about CC(C)CNC(=O)COC(=O)c1c2c(nc3ccccc13)CCC2 ?
inactive

How about O=C(CCCN1C(=O)/C(=C/c2ccccc2Cl)SC1=S)NNC(=O)c1ccccc1 ?
active

How about COc1ccc(CCNc2nnc(Sc3nnnn3-c3ccccc3)s2)cc1OC ?
inactive
